experiment: Acute toxicity in po dosed male C57BL/6J mouse assessed as lethal dose measured after 14 days; type: organism-based; settings: in vivo, time 14 day
VALUE_KIND: LD50 at 336 h (mg/kg)
The reply should be a number in mg/kg, with the unit left off.

Fill blank: measured LD50 at 336 h of the molecule COc1ccc(-c2ccncc2)c2cn(C3CC3)nc12 is ____.
400

====

Give bioavailability for every item shown.
assay: Oral bioavailability in male C57BL/6J mouse; assay type: ADME, organism-based; conditions: in vivo
Only the number, expressed in %, is required.

Entry under review: COc1ccc(-c2ccncc2)c2cn(C3CC3)nc12 . Reported bioavailability?
3.4

Follow-up entry: COc1cc(-c2ccc(OC(F)F)c3nn(C4CC4)cc23)cc(OC)c1OC
5

====

For each entry below, report its inhibition value.
target: 3',5'-cyclic-AMP phosphodiesterase 4D (Homo sapiens, UniProt Q08499); assay: Inhibition of PDE4D7 (unknown origin) using FAM-cyclic-3'5'-AMP as substrate at 10 nM incubated for 1 hrs by fluorescence polarization assay relative to control
Sequence (Q08499 whole entry): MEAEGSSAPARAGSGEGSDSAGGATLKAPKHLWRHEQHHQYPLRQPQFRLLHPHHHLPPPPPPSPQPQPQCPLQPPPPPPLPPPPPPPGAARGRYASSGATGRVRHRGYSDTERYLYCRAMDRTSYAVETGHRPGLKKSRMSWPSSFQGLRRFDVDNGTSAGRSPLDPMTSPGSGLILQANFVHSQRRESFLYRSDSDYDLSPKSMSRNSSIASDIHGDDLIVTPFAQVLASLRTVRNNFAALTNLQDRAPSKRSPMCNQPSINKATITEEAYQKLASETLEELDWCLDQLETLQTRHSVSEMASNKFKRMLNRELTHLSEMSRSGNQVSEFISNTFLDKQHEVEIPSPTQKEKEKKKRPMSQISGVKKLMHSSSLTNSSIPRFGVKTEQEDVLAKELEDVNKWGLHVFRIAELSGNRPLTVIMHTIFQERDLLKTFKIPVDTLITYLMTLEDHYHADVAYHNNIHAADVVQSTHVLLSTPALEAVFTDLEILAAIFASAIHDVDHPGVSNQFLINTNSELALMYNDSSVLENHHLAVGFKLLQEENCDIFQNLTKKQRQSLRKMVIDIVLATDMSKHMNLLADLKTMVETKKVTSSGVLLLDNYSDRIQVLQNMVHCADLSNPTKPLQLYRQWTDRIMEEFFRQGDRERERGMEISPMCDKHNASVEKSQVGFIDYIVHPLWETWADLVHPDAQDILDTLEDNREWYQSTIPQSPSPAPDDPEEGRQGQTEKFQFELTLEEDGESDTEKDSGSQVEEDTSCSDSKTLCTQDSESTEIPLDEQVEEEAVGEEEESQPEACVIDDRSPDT
Give just the number in %; leave the unit off.

Form field - read-out: inhibition; system: 3',5'-cyclic-AMP phosphodiesterase 4D (Homo sapiens, UniProt Q08499); submitted item: COc1cc(-c2ccc(OC(F)F)c3nn(C4CC4)cc23)cc(OC)c1OC
42

One more molecule: COc1ccc(-c2cc(C#N)cc(Cc3ccccc3)c2)c2cn(C3CC3)nc12
3

Then this molecule: Fc1cc(-c2ccc(OC(F)F)c3nn(C4CC4)cc23)ccn1
12

One more molecule: COc1ccc(-c2cccc(C(N)=O)c2)c2cn(C3CC3)nc12
26

Let us now turn to FC(F)Oc1ccc(-c2ccncc2Cl)c2cn(C3CC3)nc12
6

Follow-up item: COc1ccc(-c2cccc(CN)c2)c2cn(C3CC3)nc12
32

Then what about the molecule COc1ccc(-c2ccncc2)c2cn(C3CC3)nc12 ?
46

Request: FC(F)Oc1ccc(-c2ccnc(N3CCOCC3)c2)c2cn(C3CC3)nc12
3

Also FC(F)Oc1ccc(-c2ccncc2)c2cn(C3CC3)nc12 ?
34

Okay, and FC(F)Oc1ccc(-c2ccnc(Cl)c2)c2cn(C3CC3)nc12 ?
28

COc1ccc(-c2cccc(C#N)c2)c2cn(C3CC3)nc12 ?
5

Proceed to COc1ccc(N2CC(Oc3ccccc3)C2)c2cn(C3CC3)nc12
7

Moving on to CC(=O)c1cccc(-c2ccc(OC(F)F)c3nn(C4CC4)cc23)c1
38

Further, for O=C(NCc1ccccc1)c1cc(-c2ccc(OC(F)F)c3nn(C4CC4)cc23)ccn1 ?
8

Please give the result for COc1ccc(-n2ccc3cc(C#N)ccc32)c2cn(C3CC3)nc12 too.
18

Same read-out for CNc1cc(-c2ccc(OC(F)F)c3nn(C4CC4)cc23)ccn1 ?
4

Request: CC(C)CNC(=O)c1cc(-c2ccc(OC(F)F)c3nn(C4CC4)cc23)ccn1
5

Also COc1cc(-c2ccc(OC)c3nn(C4CC4)cc23)cc(OC)c1OC ?
34

Can you handle COc1cc(-c2ccc(OC(F)F)c3nn(C4CC4)cc23)ccn1 next?
7

Note, next up: COc1ccc(-c2ccc(OC)c3nn(C4CC4)cc23)cc1OC
3

Consider next the molecule FC(F)Oc1ccc(N2CCOCC2)c2cn(C3CC3)nc12 in the same way.
4

Try this molecule next: CC(C)(O)C1CN(c2ccc(OC(F)F)c3nn(C4CC4)cc23)C1
4

What do we get for Fc1cnccc1-c1ccc(OC(F)F)c2nn(C3CC3)cc12 ?
3

Query COc1ccc(-c2cccc(C(C)=O)c2)c2cn(C3CC3)nc12 next
37
